- TARGET: Calcium/calmodulin-dependent protein kinase kinase 2 (Homo sapiens, UniProt Q96RR4); note: in the data inactive means no Kd found up to 30 µM
- Sequence (Q96RR4 whole entry): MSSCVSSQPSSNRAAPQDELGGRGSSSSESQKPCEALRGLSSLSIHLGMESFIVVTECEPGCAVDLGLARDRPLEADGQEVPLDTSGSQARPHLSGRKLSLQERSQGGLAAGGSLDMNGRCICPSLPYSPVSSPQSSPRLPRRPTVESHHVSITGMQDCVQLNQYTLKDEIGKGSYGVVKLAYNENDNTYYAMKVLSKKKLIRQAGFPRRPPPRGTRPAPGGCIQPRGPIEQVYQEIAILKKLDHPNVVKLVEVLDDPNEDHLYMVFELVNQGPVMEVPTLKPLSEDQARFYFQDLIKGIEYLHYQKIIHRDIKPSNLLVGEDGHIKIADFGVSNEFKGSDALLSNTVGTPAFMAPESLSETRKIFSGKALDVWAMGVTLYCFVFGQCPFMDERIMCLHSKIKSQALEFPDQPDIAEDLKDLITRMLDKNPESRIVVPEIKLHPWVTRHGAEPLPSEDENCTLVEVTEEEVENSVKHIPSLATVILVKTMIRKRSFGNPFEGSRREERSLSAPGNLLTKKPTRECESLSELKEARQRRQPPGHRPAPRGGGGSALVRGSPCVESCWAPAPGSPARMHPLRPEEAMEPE
The source made the active and inactive calls.
Choose the fitting class; nothing outside active, inactive is accepted.

MOLECULE	TARGET	CATEGORY_LABEL
O=C(Nc1cccc(Cl)c1)Nc1ncc(CCNc2ncnc3ccsc23)s1	Calcium/calmodulin-dependent protein kinase kinase 2 (Homo sapiens, UniProt Q96RR4)	inactive
Cc1cc([C@@H](C)Nc2ccccc2C(=O)O)c2nc(N3CCOCC3)cc(=O)n2c1	Calcium/calmodulin-dependent protein kinase kinase 2 (Homo sapiens, UniProt Q96RR4)	inactive
COc1cc(OC)c(/C=C/S(=O)(=O)Cc2ccc(OC)c(NCC(=O)O)c2)c(OC)c1	Calcium/calmodulin-dependent protein kinase kinase 2 (Homo sapiens, UniProt Q96RR4)	inactive
CC[C@@H]1C(=O)N(C)c2cnc(Nc3ccc(C(=O)N[C@H]4CC[C@H](N5CCN(CC6CC6)CC5)CC4)cc3OC)nc2N1C(C)C	Calcium/calmodulin-dependent protein kinase kinase 2 (Homo sapiens, UniProt Q96RR4)	active
Cc1ccc(-n2nc(C(C)(C)C)cc2NC(=O)NCc2cc(F)ccc2Oc2ccc3c(cnn3CCO)c2)cc1	Calcium/calmodulin-dependent protein kinase kinase 2 (Homo sapiens, UniProt Q96RR4)	inactive

Q: Given C[C@@H]1CN(Cc2ccc(F)cc2)[C@@H](C)CN1C(=O)c1cc2c(C(=O)C(=O)N(C)C)cn(C)c2cc1Cl , state the outcome it received in this test.
Result: inactive

Q: Field entry: CO[C@H]1C[C@@H]2CC[C@@H](C)[C@@](O)(O2)C(=O)C(=O)N2CCCC[C@H]2C(=O)O[C@H]([C@H](C)C[C@@H]2CC[C@@H](OCCO)[C@H](OC)C2)CC(=O)[C@H](C)/C=C(\C)[C@@H](O)[C@@H](OC)C(=O)[C@H](C)C[C@H](C)/C=C/C=C/C=C/1C
Result: inactive

Q: Also COc1ccc(-c2ccc3c(N4CCOC[C@@H]4C)nc(N4CCOC[C@@H]4C)nc3n2)cc1CO ?
Result: inactive

Q: Cool, now COc1cc2nccc(Oc3ccc(NC(=O)NC4CC4)c(Cl)c3)c2cc1C(N)=O
Result: inactive

Q: Please do the same for Cn1cc(-c2ccc(F)c(C(F)(F)F)c2)nc1C1CCN(c2ncnc3[nH]ncc23)CC1 as well.
Result: inactive

Q: Also CN1N=C(N)c2cn([C@@H]3O[C@H](COP(=O)(O)O)[C@@H](O)[C@H]3O)c3ncnc1c23 [TRICIRIBINE PHOSPHATE] ?
Result: inactive

Q: Repeat with Cc1ccc(NC(=O)c2ccc(CN3CC[C@H](N(C)C)C3)c(C(F)(F)F)c2)cc1Nc1nccc(-c2cncnc2)n1
Result: inactive

Q: Thanks! And CNC(=O)c1ccc(C)c(-n2c(C)cc(OCc3ccc(F)cc3F)c(Br)c2=O)c1 ?
Result: inactive

Q: Follow-up entry: CNC(=O)c1ccc(-c2cnc3ncc(Cc4ccc5ncccc5c4)n3n2)cc1F
Result: inactive

====

- TARGET: Ephrin type-B receptor 4 (Homo sapiens); note: in the data inactive means no Kd found up to 30 µM
- Sequence (P54760 whole entry): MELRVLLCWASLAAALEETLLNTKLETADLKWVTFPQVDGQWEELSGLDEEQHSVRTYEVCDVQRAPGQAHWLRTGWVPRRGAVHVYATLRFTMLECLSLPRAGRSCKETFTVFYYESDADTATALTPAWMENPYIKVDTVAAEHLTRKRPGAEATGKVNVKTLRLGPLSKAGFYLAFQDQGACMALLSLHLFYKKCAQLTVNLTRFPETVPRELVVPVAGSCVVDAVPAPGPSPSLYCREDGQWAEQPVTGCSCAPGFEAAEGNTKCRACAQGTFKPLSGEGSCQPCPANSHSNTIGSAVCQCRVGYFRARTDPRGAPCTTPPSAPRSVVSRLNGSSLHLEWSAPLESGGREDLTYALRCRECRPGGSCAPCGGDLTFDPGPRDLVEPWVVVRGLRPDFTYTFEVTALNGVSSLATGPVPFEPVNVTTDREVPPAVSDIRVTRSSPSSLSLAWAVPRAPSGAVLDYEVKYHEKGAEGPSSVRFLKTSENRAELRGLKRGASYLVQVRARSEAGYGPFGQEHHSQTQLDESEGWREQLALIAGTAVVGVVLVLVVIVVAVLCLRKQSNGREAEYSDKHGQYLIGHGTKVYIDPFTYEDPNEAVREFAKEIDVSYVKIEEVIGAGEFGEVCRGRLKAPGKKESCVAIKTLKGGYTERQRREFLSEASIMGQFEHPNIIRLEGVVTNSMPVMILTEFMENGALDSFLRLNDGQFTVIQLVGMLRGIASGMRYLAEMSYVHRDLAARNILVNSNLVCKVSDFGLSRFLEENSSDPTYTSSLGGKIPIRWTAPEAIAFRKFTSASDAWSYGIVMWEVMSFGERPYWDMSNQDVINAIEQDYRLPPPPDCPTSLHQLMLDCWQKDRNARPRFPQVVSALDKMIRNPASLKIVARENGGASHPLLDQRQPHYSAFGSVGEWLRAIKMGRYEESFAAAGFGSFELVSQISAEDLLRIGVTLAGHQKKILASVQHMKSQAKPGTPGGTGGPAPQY
The source made the active and inactive calls.
// classify into active, inactive

Below are worked cases with known answers.
MOLECULE	CATEGORY_LABEL
CCn1c(=O)c(-c2cc[nH]n2)cc2c(C)nc(N)nc21	inactive
CNC(=O)c1ccc(C)c(-n2c(C)cc(OCc3ccc(F)cc3F)c(Br)c2=O)c1	inactive
C=CC(=O)N1CCC(Oc2cc3c(Nc4ccc(Cl)c(Cl)c4F)ncnc3cc2OC)CC1	active
CN(C)C(=O)c1cc2cnc(Nc3ccc(N4CCNCC4)cn3)nc2n1C1CCCC1	inactive

Q: Recorded test call requested for O=C(O)[C@]1(Cc2cccc(Nc3nccs3)n2)CC[C@@H](Oc2cccc(Cl)c2F)CC1
Result: inactive

Q: What do you get for Cc1cc(-c2cc(O)ccc2Cl)cc2nnc(Nc3ccc(OCCN4CCCC4)cc3)nc12 ?
Result: active

Q: What about this molecule? COc1cc(N2CCC(N3CCN(C)CC3)CC2)ccc1Nc1ncnc(Nc2ccccc2S(=O)(=O)C(C)C)n1
Result: inactive

Q: What about OCCn1cc(-c2cnc3nnn(Cc4ccc5ncccc5c4)c3n2)cn1 ?
Result: inactive

====

- TARGET: UniProt Q15418
- Sequence (Q15418 whole entry): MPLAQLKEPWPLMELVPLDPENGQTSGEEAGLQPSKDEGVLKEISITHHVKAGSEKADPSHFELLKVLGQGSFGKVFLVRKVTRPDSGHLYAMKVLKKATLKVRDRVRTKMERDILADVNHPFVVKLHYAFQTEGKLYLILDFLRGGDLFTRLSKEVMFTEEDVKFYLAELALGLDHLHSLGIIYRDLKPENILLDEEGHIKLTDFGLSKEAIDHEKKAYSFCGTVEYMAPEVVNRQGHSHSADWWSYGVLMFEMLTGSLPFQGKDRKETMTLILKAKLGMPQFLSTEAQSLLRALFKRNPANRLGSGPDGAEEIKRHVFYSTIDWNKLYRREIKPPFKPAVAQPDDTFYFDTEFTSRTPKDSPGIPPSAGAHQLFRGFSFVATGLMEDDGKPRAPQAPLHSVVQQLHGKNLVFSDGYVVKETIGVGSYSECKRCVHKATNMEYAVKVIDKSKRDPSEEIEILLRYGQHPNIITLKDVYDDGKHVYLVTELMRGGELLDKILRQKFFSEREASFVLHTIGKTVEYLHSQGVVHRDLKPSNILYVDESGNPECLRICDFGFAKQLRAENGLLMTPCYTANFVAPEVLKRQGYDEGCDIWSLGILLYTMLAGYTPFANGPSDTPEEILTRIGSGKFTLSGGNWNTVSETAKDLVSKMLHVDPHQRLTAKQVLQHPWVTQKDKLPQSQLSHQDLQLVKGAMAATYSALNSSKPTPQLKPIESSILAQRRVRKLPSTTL
Active and inactive are the calls of the source.
Please answer using one outcome listed in active, inactive

Example entries begin here.
MOLECULE	CATEGORY_LABEL
Cn1ncc(Cl)c1-c1cc(C(=O)N[C@H](CN)Cc2cccc(F)c2)sc1Cl	inactive
Cc1cc([C@@H](C)Nc2ccccc2C(=O)O)c2nc(N3CCOCC3)cc(=O)n2c1	inactive
C1=C/COCc2cc(ccc2OCCN2CCCC2)Nc2nccc(n2)-c2cccc(c2)COC/1	inactive
Cc1cc(Nc2cc(N3CCN(C)CC3)nc(/C=C/c3ccccc3)n2)n[nH]1	inactive
O=C(Nc1cccc(Cl)c1)Nc1ncc(CCNc2ncnc3ccsc23)s1	inactive
CNC(=O)c1ccc(C)c(-n2c(C)cc(OCc3ccc(F)cc3F)c(Br)c2=O)c1	inactive
OCCn1cc(-c2cnc3nnn(Cc4ccc5ncccc5c4)c3n2)cn1	inactive

Q: Query: recorded result category for COC(=O)[C@@]1(O)C[C@H]2O[C@]1(C)n1c3ccccc3c3c4c(c5c6ccccc6n2c5c31)C(=O)NC4 [K-252A] in this test
Result: active

====

- TARGET: Serine/threonine-protein kinase D3 (Homo sapiens); note: in the data inactive means no Kd found up to 30 µM
- Sequence (O94806 whole entry): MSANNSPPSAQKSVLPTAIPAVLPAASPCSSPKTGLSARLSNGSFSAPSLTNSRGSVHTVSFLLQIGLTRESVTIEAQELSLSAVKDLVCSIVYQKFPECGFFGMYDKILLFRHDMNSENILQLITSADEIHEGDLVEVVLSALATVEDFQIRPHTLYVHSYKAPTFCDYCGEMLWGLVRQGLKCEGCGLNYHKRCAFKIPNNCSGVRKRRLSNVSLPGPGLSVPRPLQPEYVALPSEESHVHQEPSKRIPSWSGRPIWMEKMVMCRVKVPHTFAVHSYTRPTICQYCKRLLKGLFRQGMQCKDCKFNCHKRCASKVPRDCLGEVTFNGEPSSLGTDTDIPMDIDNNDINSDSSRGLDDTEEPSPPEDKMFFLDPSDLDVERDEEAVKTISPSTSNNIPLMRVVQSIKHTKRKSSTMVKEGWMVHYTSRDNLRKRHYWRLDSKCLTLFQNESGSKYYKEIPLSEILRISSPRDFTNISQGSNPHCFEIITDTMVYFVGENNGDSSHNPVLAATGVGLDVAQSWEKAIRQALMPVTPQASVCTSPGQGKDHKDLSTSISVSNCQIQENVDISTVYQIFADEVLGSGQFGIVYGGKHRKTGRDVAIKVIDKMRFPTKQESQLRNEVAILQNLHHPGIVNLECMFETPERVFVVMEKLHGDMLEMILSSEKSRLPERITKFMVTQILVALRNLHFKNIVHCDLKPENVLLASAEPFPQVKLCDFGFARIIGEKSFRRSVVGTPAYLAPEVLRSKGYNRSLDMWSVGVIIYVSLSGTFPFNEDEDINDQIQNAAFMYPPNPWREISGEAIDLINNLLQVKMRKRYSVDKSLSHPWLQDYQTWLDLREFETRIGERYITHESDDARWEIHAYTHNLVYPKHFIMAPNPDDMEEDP
Active and inactive are the calls of the source.
// allowed return values: True for active, False for inactive

Recorded results for 4 compounds are shown here.
COMPOUND	CATEGORY_LABEL
N[C@@H]1CCCN(c2c(/C=C3\SC(=O)NC3=O)cccc2-c2ccccc2)C1	False
COc1cc(CCc2cc(NC(=O)c3ccc(N4C[C@@H](C)N[C@@H](C)C4)cc3)n[nH]2)cc(OC)c1	False
CCS(=O)(=O)N1CC(CC#N)(n2cc(-c3ncnc4[nH]ccc34)cn2)C1	False
Cn1ncc(Cl)c1-c1cc(C(=O)N[C@H](CN)Cc2cccc(F)c2)sc1Cl	False

Q: Hello, I am checking results. What call was entered for Cn1cc(-c2ccc3nnc(C(F)(F)c4ccc5ncccc5c4)n3n2)cn1 ?
Result: False

Q: // next record CCn1c(=O)c(-c2cc[nH]n2)cc2c(C)nc(N)nc21
Result: False

Q: Okay, and COC(=O)N[C@@H](C)CNc1nccc(-c2cn(C(C)C)nc2-c2cc(Cl)cc(NS(C)(=O)=O)c2F)n1 ?
Result: False

Q: Try this compound too: C=CC(=O)N1CCC(Oc2cc3c(Nc4ccc(Cl)c(Cl)c4F)ncnc3cc2OC)CC1
Result: False

Q: Quick one: COc1ccc(-c2ccc3c(N4CCOC[C@@H]4C)nc(N4CCOC[C@@H]4C)nc3n2)cc1CO
Result: False

Q: What about this compound? O=c1sn(-c2cccc3ccccc23)c(=O)n1Cc1ccccc1
Result: False

Q: Also CC[C@H](Nc1ncnc2[nH]cnc12)c1nc2cccc(F)c2c(=O)n1-c1ccccc1 ?
Result: False

Q: How about this compound: COCCNCc1ccc(-c2cc3nccc(Oc4ccc(NC(=S)NC(=O)Cc5ccc(F)cc5)cc4F)c3s2)nc1
Result: False

Q: Now try CO[C@H]1C[C@@H]2CC[C@@H](C)[C@@](O)(O2)C(=O)C(=O)N2CCCC[C@H]2C(=O)O[C@H]([C@H](C)C[C@@H]2CC[C@@H](OCCO)[C@H](OC)C2)CC(=O)[C@H](C)/C=C(\C)[C@@H](O)[C@@H](OC)C(=O)[C@H](C)C[C@H](C)/C=C/C=C/C=C/1C .
Result: False

Q: And what about the compound O=C(Nc1ccc(-c2ccnc(Nc3ccc(N4CCOCC4)cc3)n2)cc1)C1CCCN1 (stereo unspecified) ?
Result: True

Q: Please do the same for CN1CCC(CNc2ccc3ncc(-c4cccc(OC(F)(F)F)c4)n3n2)CC1 as well.
Result: False

Q: Try this compound too: Cc1cc2c(F)c(Oc3ncnn4cc(OC[C@@H](C)OC(=O)[C@H](C)N)c(C)c34)ccc2[nH]1 [BRIVANIB ALANINATE]
Result: False

====

- TARGET: Serine/threonine-protein kinase D2 (Homo sapiens); note: in the data inactive means no Kd found up to 30 µM
- Sequence (Q9BZL6 whole entry): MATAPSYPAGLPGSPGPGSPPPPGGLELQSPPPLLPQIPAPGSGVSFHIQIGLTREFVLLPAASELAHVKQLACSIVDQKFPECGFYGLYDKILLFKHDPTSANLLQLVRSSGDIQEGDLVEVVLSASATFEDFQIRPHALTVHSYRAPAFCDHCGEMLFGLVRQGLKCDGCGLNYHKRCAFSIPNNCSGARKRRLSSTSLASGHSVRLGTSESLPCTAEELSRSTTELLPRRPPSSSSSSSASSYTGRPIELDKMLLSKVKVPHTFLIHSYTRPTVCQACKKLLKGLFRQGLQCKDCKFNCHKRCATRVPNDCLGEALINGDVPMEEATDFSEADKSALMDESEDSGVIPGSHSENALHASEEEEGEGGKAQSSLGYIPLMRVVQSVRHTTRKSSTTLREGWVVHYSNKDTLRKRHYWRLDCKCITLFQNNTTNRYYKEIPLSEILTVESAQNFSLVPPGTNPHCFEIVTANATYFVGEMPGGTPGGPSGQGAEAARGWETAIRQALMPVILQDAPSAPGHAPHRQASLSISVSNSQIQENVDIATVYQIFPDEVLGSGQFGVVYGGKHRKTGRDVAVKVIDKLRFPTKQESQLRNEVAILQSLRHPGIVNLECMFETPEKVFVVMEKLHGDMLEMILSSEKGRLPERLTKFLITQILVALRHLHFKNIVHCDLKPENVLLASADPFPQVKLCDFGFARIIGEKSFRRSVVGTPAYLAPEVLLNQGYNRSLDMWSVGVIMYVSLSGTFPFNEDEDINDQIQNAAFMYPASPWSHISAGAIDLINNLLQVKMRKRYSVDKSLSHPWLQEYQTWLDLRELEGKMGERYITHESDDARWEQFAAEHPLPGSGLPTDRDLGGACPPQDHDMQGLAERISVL
Activity calls are given as the source filed them.
Please state which outcome applies, choosing from active, inactive

A selection of reference data follows.
CHEMICAL_STRUCTURE	CATEGORY_LABEL
Cc1c(F)cc(C(=O)NC2CC2)cc1-c1ccc(C(=O)NCC(C)(C)C)cn1	inactive
CCc1cnn2c(NCc3ccc[n+]([O-])c3)cc(N3CCCC[C@H]3CCO)nc12	inactive
CNC(=O)c1ccc(C)c(-n2c(C)cc(OCc3ccc(F)cc3F)c(Br)c2=O)c1	inactive
Cc1ccc(S(=O)(=O)Nc2nc3ccccc3nc2Nc2ccc3nsnc3c2)cc1	inactive

Q: Short answer needed: outcome of this test for Cc1cc(-c2cc(O)ccc2Cl)cc2nnc(Nc3ccc(OCCN4CCCC4)cc3)nc12 ?
Result: active

====

- TARGET: Dual specificity tyrosine-phosphorylation-regulated kinase 1A (Homo sapiens, UniProt Q13627); note: in the data inactive means no Kd found up to 30 µM
The source made the active and inactive calls.
In this exercise, the only acceptable responses are active, inactive

Example cases with answers are listed next.
COMPOUND	CATEGORY_LABEL
CCCS(=O)(=O)Nc1ccc(F)c(C(=O)c2c[nH]c3ncc(-c4ccc(Cl)cc4)cc23)c1F	inactive
C[C@@H](c1ccc2nccn2c1)n1nnc2ncc(-c3cnn(C)c3)nc21	inactive

Q: Please indicate how the test categorized COC(=O)[C@@]1(O)C[C@H]2O[C@]1(C)n1c3ccccc3c3c4c(c5c6ccccc6n2c5c31)C(=O)NC4 [K-252A] .
Result: active

Q: Record: C[C@@H]1CN(Cc2ccc(F)cc2)[C@@H](C)CN1C(=O)c1cc2c(C(=O)C(=O)N(C)C)cn(C)c2cc1Cl
Result: inactive

Q: Input C[C@@H](Nc1cc(F)cc(F)c1)c1cc(C(=O)N(C)C)cc2c(=O)cc(N3CCOCC3)oc12
Result: inactive

Q: Then N[C@@H]1CCCN(c2c(/C=C3\SC(=O)NC3=O)cccc2-c2ccccc2)C1 ?
Result: inactive

Q: Also, CN(C)C(=O)c1cc2cnc(Nc3ccc(N4CCNCC4)cn3)nc2n1C1CCCC1 please.
Result: inactive

Q: Record: Cc1cc(-c2cc(O)ccc2Cl)cc2nnc(Nc3ccc(OCCN4CCCC4)cc3)nc12
Result: inactive
